Hello, the source for this data is ChEMBL document CHEMBL3875218, in case you need it.

- Target Of Assay: Histone deacetylase 8 (Homo sapiens)
- Sequence (Q9BY41 whole entry): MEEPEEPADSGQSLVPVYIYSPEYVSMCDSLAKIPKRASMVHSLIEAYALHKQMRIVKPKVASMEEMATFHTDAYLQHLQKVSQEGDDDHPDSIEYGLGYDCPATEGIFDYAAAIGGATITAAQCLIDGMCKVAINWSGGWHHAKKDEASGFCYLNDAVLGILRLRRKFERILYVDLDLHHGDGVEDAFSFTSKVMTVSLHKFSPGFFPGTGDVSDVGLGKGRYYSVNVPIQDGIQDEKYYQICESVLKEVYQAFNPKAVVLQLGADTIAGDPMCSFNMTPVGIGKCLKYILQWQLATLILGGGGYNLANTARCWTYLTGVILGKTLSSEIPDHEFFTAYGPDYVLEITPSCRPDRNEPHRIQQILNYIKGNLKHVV
Catalogue of molecules with associated pIC50
Interpret pIC50 as the negative base-10 log of the concentration measured in mol/L.

Before answering, review these 4 worked examples.
pIC50 reading for COC(=O)Cc1c(C)n(Cc2ccc(-c3cn(CCCCCC(=O)NO)nn3)cc2)c2ccc(OC)cc12 : 6.17

Notebook: COC(=O)Cc1c(C)n(Cc2ccc(-c3cn(CCCCCCCC(=O)NO)nn3)cc2)c2ccc(OC)cc12 , pIC50 read as 6.40

In plain terms, COc1ccc2c(c1)c(CC(=O)O)c(C)n2Cc1ccc(-c2cn(CCCCCCC(=O)NO)nn2)cc1 has a documented pIC50 of 6.94

Note to self: pIC50 recorded for Cc1ccc(-c2cc(C(=O)NCCCCCC(=O)NO)nn2-c2ccc(S(N)(=O)=O)cc2)cc1 was 6.26

***
pIC50 reported for this molecule Cc1ccc(-c2cc(C(=O)NCCCCCCC(=O)NO)nn2-c2ccc(S(N)(=O)=O)cc2)cc1 : 6.28

Per the records, this molecule ( COc1ccc2c(c1)c(CC(=O)NCCCCCC(=O)NO)c(C)n2C(=O)c1ccc(Cl)cc1 ) has pIC50 equal to 6.46
